Molecular target: Gal-3 (Homo sapiens)
Assay: Fluorescence anisotropy assay, inhibition of galectin / fluorescein tagged saccharide probe interaction
Assay type: binding
Listing: Kd of selected compounds
parameter.measured: Kd

> print(dat)
                                   compound  result
1  Cc1nc([C@@H]2OC(CO)[C@H](O)C(n3cc(-c4cc(F)c(F)c(F)c4)cn3)C2O)n(-c2ccc3nc(C)sc3c2)n1 (stereo in doubt)   22 nM
2  Cc1nc([C@@H]2OC(CO)[C@H](O)C(n3cc(-c4cc(F)c(Cl)c(F)c4)cn3)C2O)n(-c2cc(Cl)ccc2C(F)(F)F)n1 (stereo in doubt)    6 nM
3  Cc1nc([C@@H]2OC(CO)[C@H](O)C(n3cc(-c4cc(F)c(F)c(F)c4)cn3)C2O)n(-c2ncc(Cl)s2)n1 (stereo in doubt)  520 nM
4  C#CCc1c(F)cc(-c2cnn(C3C(O)[C@H](c4nc(C)nn4-c4cc(Cl)ccc4C(F)(F)F)OC(CO)[C@@H]3O)c2)cc1F (stereo in doubt)   26 nM
5  Cc1nc([C@@H]2OC(CO)[C@H](O)C(n3cc(-c4cccc(F)n4)cn3)C2O)n(-c2cc(Cl)ccc2C(F)(F)F)n1 (stereo in doubt)  130 nM
6  Cc1nc([C@@H]2OC(CO)[C@H](O)C(n3cc(-c4cc(F)c(Cl)cn4)cn3)C2O)n(-c2cc(Cl)ccc2C(F)(F)F)n1 (stereo in doubt)   24 nM

----------
Target: Gal-3 (Homo sapiens, UniProt P17931)
Sequence (P17931 whole entry, species assumed): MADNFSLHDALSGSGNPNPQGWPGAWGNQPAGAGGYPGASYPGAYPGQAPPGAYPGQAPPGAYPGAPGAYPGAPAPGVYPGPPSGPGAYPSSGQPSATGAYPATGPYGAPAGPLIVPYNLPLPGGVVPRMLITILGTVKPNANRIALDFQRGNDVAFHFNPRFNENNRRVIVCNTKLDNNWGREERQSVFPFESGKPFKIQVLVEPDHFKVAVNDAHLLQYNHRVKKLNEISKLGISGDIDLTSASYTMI
Experiment: Fluorescence anisotropy assay, inhibition of galectin / fluorescein tagged saccharide probe interaction
pKd: −log10 of the molar value.
Listing: pKd of selected compounds

compound	system.name	pKd
Cc1nc([C@@H]2OC(CO)[C@H](O)C(n3cc(-c4cc(F)c(F)c(F)c4)cn3)C2O)n(-c2cc3sc(C)nc3cc2F)n1 (stereo in doubt)	Gal-3 (Homo sapiens, UniProt P17931)	7.80
Cc1nc([C@@H]2OC(CO)[C@H](O)C(n3cc(-c4cc(F)c(F)c(F)c4)c(-c4ccccc4)n3)C2O)n(-c2cc(Cl)ccc2C(F)(F)F)n1 (stereo in doubt)	Gal-3 (Homo sapiens, UniProt P17931)	7.10
CCOC(=O)c1nn(C2C(O)[C@H](c3nc(C)nn3-c3cc(Cl)ccc3C(F)(F)F)OC(CO)[C@@H]2O)cc1-c1cc(F)c(Cl)c(F)c1 (stereo in doubt)	Gal-3 (Homo sapiens, UniProt P17931)	7.55
Cc1nc([C@@H]2OC(CO)[C@H](O)C(n3cc(-c4cc(F)c(F)c(F)c4)cn3)C2O)n(-c2cc3sc(C)nc3cc2C#N)n1 (stereo in doubt)	Gal-3 (Homo sapiens, UniProt P17931)	7.77
Cc1nc([C@@H]2OC(CO)[C@H](O)C(n3cc(-c4cc(F)c(F)c(F)c4)cn3)C2O)n(-c2cc(Br)ccc2C#N)n1 (stereo in doubt)	Gal-3 (Homo sapiens, UniProt P17931)	7.82
Cc1nc([C@@H]2OC(CO)[C@H](O)C(n3cc(-c4cc(F)c(F)c(F)c4)cn3)C2O)n(-c2cc(C#N)ccc2C(F)(F)F)n1 (stereo in doubt)	Gal-3 (Homo sapiens, UniProt P17931)	7.72
Cc1nc([C@@H]2OC(CO)[C@H](O)C(n3cc(-c4cc(F)c(Cl)c(F)c4)c(C(=O)O)n3)C2O)n(-c2cc(Cl)ccc2C(F)(F)F)n1 (stereo in doubt)	Gal-3 (Homo sapiens, UniProt P17931)	8.22
Cc1nc([C@@H]2OC(CO)[C@H](O)C(n3cc(-c4cc(F)c(F)c(F)c4)cn3)C2O)n(-c2cc(Cl)cnc2C2CC2)n1 (stereo in doubt)	Gal-3 (Homo sapiens, UniProt P17931)	7.82
Cc1nc([C@@H]2OC(CO)[C@H](O)C(n3cc(-c4cc(F)c(F)c(F)c4)cn3)C2O)n(-c2ccc3nc(C)sc3c2Cl)n1 (stereo in doubt)	Gal-3 (Homo sapiens, UniProt P17931)	6.59
Cc1nc([C@@H]2OC(CO)[C@H](O)C(n3cc(-c4cc(F)c(F)c(F)c4)cn3)C2O)n(-c2cc(Cl)cnc2C#N)n1 (stereo in doubt)	Gal-3 (Homo sapiens, UniProt P17931)	7.09
Cc1nc([C@@H]2OC(CO)[C@H](O)C(n3cc(-c4cc(F)c(F)c(F)c4)cn3)C2O)n(-c2ccc3ncsc3c2)n1 (stereo in doubt)	Gal-3 (Homo sapiens, UniProt P17931)	8.05
Cc1nc([C@@H]2OC(CO)[C@H](O)C(n3cc(-c4cc(F)c(C)cn4)cn3)C2O)n(-c2cc(Cl)ccc2C(F)(F)F)n1 (stereo in doubt)	Gal-3 (Homo sapiens, UniProt P17931)	7.89
Cc1nc([C@@H]2OC(CO)[C@H](O)C(n3cc(-c4cc(F)c(F)c(F)c4)cn3)C2O)n(-c2cc(Br)ccc2C(F)(F)F)n1 (stereo in doubt)	Gal-3 (Homo sapiens, UniProt P17931)	8.70
Cc1nc([C@@H]2OC(CO)[C@H](O)C(n3cc(-c4ccc(C(F)(F)F)cc4)cn3)C2O)n(-c2cc(Cl)ccc2C(F)(F)F)n1 (stereo in doubt)	Gal-3 (Homo sapiens, UniProt P17931)	6.96
Cc1nc([C@@H]2OC(CO)[C@H](O)C(n3cc(-c4cc(F)c(F)c(F)c4)cn3)C2O)n(-c2ccc3nc(C(F)(F)F)sc3c2)n1 (stereo in doubt)	Gal-3 (Homo sapiens, UniProt P17931)	6.64
Cc1nnc([C@@H]2OC(CO)[C@H](O)C(n3cc(-c4cc(F)c(Cl)c(F)c4)cn3)C2O)n1-c1cc(Cl)ccc1C(F)(F)F (single isomer, unassigned) [Example 11]	Gal-3 (Homo sapiens, UniProt P17931)	8.15
Cc1nc([C@@H]2OC(CO)[C@H](O)C(n3cc(-c4cc(C)c(Cl)cn4)cn3)C2O)n(-c2cc(Cl)ccc2C(F)(F)F)n1 (stereo in doubt)	Gal-3 (Homo sapiens, UniProt P17931)	6.85
Cc1nc([C@@H]2OC(CO)[C@H](O)C(n3cc(-c4cc(F)c(Cl)c(F)c4)cn3)C2O)n(-c2cc(Cl)cnc2C(F)(F)F)n1 (stereo in doubt)	Gal-3 (Homo sapiens, UniProt P17931)	7.82
Cc1nc([C@@H]2OC(CO)[C@H](O)C(n3cc(-c4cc(F)c(Cl)c(F)c4)c(C#N)n3)C2O)n(-c2cc(Cl)ccc2C(F)(F)F)n1 (stereo in doubt)	Gal-3 (Homo sapiens, UniProt P17931)	7.92
Cc1nc([C@@H]2OC(CO)[C@H](O)C(n3cc(-c4cc(F)c(F)c(F)c4)c(-c4cccc(F)c4)n3)C2O)n(-c2cc(Cl)ccc2C(F)(F)F)n1 (stereo in doubt)	Gal-3 (Homo sapiens, UniProt P17931)	6.62
Cc1nc([C@@H]2OC(CO)[C@H](O)C(n3cc(-c4cc(F)c(F)c(F)c4)c(-c4ccccc4F)n3)C2O)n(-c2cc(Cl)ccc2C(F)(F)F)n1 (stereo in doubt)	Gal-3 (Homo sapiens, UniProt P17931)	7.27

----------
Assay: Human hepatic Clint
Assay type: in vitro ADME
parameter.measured: CLint scaled (mL/min/kg)

> print(dat)
                                   compound  numeric.value
1  Cc1nc([C@@H]2OC(CO)[C@H](O)C(n3cc(-c4cc(F)c(Cl)c(F)c4)cn3)C2O)n(-c2cc(Cl)cnc2C2CC2)n1 (stereo in doubt) [Example 1]            1.3
2  Cc1nc([C@@H]2OC(CO)[C@H](O)C(n3cc(-c4cc(F)c(Cl)c(F)c4)cn3)C2O)n(-c2cc(Cl)ccc2C(F)(F)F)n1 (stereo in doubt) [Example 5]            0.4
3  Cc1nc([C@@H]2OC(CO)[C@H](O)C(n3cc(-c4cc(F)c(F)c(F)c4)cn3)C2O)n(-c2cc(Cl)cnc2C2CC2)n1 (stereo in doubt) [Example 13]            0.2
4  Cc1nc([C@@H]2OC(CO)[C@H](O)C(n3cc(-c4cc(F)c(Cl)c(F)c4)cn3)C2O)n(-c2ccc3nc(C)sc3c2)n1 (stereo in doubt) [Example 9]            0.6
5  Cc1nc([C@@H]2OC(CO)[C@H](O)C(n3cc(-c4cc(F)c(F)c(F)c4)cn3)C2O)n(-c2ccc3nc(C)sc3c2)n1 (stereo in doubt) [Example 8]            0.3

----------
Listing: Papp A→B of selected molecules
Assay: CACO-2 A > B permeability
Format: in vitro ADME
Conditions: human
parameter.measured: Papp A→B (×10⁻⁶ cm/s)

> print(dat)
                                   molecule   unit.spec  numeric.value
1  Cc1nc([C@@H]2OC(CO)[C@H](O)C(n3cc(-c4cc(F)c(Cl)c(F)c4)cn3)C2O)n(-c2ccc3nc(C)sc3c2)n1 (stereo in doubt)  ×10⁻⁶ cm/s             20
2  Cc1nc([C@@H]2OC(CO)[C@H](O)C(n3cc(-c4cc(F)c(Cl)c(F)c4)cn3)C2O)n(-c2cc(Cl)cnc2C2CC2)n1 (stereo in doubt)  ×10⁻⁶ cm/s             18
3  Cc1nc([C@@H]2OC(CO)[C@H](O)C(n3cc(-c4cc(F)c(F)c(F)c4)cn3)C2O)n(-c2ccc3nc(C)sc3c2)n1 (stereo in doubt)  ×10⁻⁶ cm/s             17
4  Cc1nc([C@@H]2OC(CO)[C@H](O)C(n3cc(-c4cc(F)c(Cl)c(F)c4)cn3)C2O)n(-c2cc(Cl)ccc2C(F)(F)F)n1 (stereo in doubt)  ×10⁻⁶ cm/s             18
5  Cc1nc([C@@H]2OC(CO)[C@H](O)C(n3cc(-c4cc(F)c(F)c(F)c4)cn3)C2O)n(-c2cc(Cl)cnc2C2CC2)n1 (stereo in doubt)  ×10⁻⁶ cm/s             10
